target-or-system: human GLP-1 receptor (human, UniProt P43220 24-463)
assay-protocol: cell-based or functional assay
Starred links: 1 amine or outer side, 2 acyl side, 3 side chain; linkers in the order of their positions; H or OH if unused. Non-standard residues stand in square brackets, D forms with d. Groups on a side chain read outwards from the residue. No end group written: not given here. *: point of attachment. C18 diacid = O=C(O)CCCCCCCCCCCCCCCCC(=O)*; γGlu = O=C(O)[C@H](CCC(=O)[*:2])N[*:1]; εLys = N[C@@H](CCCCN[*:1])C(=O)[*:2]; AEEA = NCCOCCOCC(=O)O; Aib = CC(C)(N)C(=O)O
reported-property: EC50 CreLuc hGLP1R 0.5% hP (nM)
Number in nM, nothing else.

Illustrative cases are given below, each with its answer.
# binder, EC50 CreLuc hGLP1R 0.5% hP / nM
data = [
    ("YXEGTFTSDYSIXLEKQAQXAFVQWLIKGGPSEPASLRHYYNWLTRQRY (Aib at 2, 13, 20; K28 side chain: C18DA-gGlu-gGlu-gGlu-gGlu-gGlu-OEG-OEG; C-terminal NH2) [Compound 142]", 0.12),
    ("Y[Aib]EGTFTSDYSI[Aib]LEKQAQ[Aib]AFVEWLIK([εLys-γGlu-γGlu-γGlu-γGlu-γGlu-C18 diacid])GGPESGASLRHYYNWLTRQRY-NH2 [Compound 152]", 0.13),
]

Note to self: EC50 CreLuc hGLP1R 0.5% hP recorded for Y[Aib]EGTFTSDYSI[Aib]LEEQAQ[Aib]AFVEWLIKGGPSSGASLRHYYNWLTRQRY-NH2 (not fully specified (residue 28)) [Compound 105] was 0.14

Recorded EC50 CreLuc hGLP1R 0.5% hP (binder YXEGTFTSDYSIXLEKQAQXAFVEWLIKGGPSSGASLRHYYNWXTRQRY (Aib at 2, 13, 20; Tle at 44; K28 side chain: C20DA-gGlu-gGlu-gGlu-gGlu-gGlu-gGlu-eLys; C-terminal NH2) [Compound 137] ): 0.12

// recorded EC50 CreLuc hGLP1R 0.5% hP for YXEGTFTSDYSIXLEKQAQXAFVQWLIKGGPSEGVSLRHYYNWLTRQRY (Aib at 2, 13, 20; K28 side chain: C20DA-gGlu-gGlu-gGlu-gGlu-gGlu-gGlu-eLys; C-terminal NH2) [Compound 114] : 0.15

Short answer for YXEGTFTSDYSIXLEKQAQXAFVQWLIKGGPSEGASLRHYYNWLTRQRY (Aib at 2, 13, 20; NMeR at 48; K28 side chain: C20DA-gGlu-gGlu-gGlu-gGlu-gGlu-gGlu-eLys; C-terminal NH2) [Compound 125] : EC50 CreLuc hGLP1R 0.5% hP was 0.23

Briefly, EC50 CreLuc hGLP1R 0.5% hP measured for YXEGTFTSDYSIXLEKQAQXEFVQWLIKGGPSEGASLRHYYNWLTRQRY (Aib at 2, 13, 20; K28 side chain: C18DA-gGlu-gGlu-gGlu-gGlu-gGlu-gGlu-eLys; C-terminal NH2) [Compound 153] : 0.25

Kindly note the recorded EC50 CreLuc hGLP1R 0.5% hP for Y[Aib]EGTFTSDYSI[Aib]LEKQAQ[Aib]AFVQWLIK([AEEA-AEEA-γGlu-γGlu-γGlu-γGlu-C18 diacid])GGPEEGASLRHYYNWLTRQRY-NH2 [Compound 146] , which is 0.14

EC50 CreLuc hGLP1R 0.5% hP recorded for this binder, YXEGTFTSDYSIXLEKQAQXAFVEWLIKGGPSSGASLRXYYNWLTRQRY (Aib at 2, 13, 20; Tle at 39; K28 side chain: C20DA-gGlu-gGlu-gGlu-gGlu-gGlu-gGlu-eLys; C-terminal NH2) [Compound 119] , is 0.26

Form field EC50 CreLuc hGLP1R 0.5% hP, entry Y[Aib]EGTFTSDYSI[Aib]LEKQAQ[Aib]AFVEWLIK([AEEA-AEEA-γGlu-γGlu-γGlu-γGlu-C18 diacid])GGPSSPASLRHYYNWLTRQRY-NH2 [Compound 158] : 0.09
